Target: recombinant soluble homotrimeric HA, A/chicken/Vietnam/NCVD-016/08 (H5N1) (influenza A virus A/chicken/Vietnam/NCVD-016/2008 (H5N1))
Assay: microarray, trimeric HA, transfection supernatant
Conditions: remark: other sources report otherwise
Binary call on Trimeric HA Binding RLU: condition met from 4000 RLU upward, condition not met beneath that.

Past entries and their recorded results:
{"columns": ["binder", "class"],
 "data": [
  ["TCN-551 (5243_D01) (antibody, V domains shown) VH: EVQLVQSGSEVKKPGESLKISCKGSGYSFSNYWIGWVRHMPGKGLEWMGIIYPGDSDTRYSPSFQGQVTMSADKSSSTVYLQWSSLKASDTAIYYCARRGGHSFGYGSGGDTHSEFDSWGQGTLVTVSS VL: QSVLTQSPSVSAAPGQKVTISCSGSDSNIGDYFVCWYQHLPGKPPQLLIYENNKRPSGIPDRFSGSKSGTSATLGITGIQTGDEADYYCATWDGSLSAWVFGGGTKLTVL", "condition not met"],
  ["TCN-542 (5079_A16) (antibody, V domains shown) VH: QVQLQESGPGLVKPSQTLSLTCTVSGGSISSGNYYWNWVRQHPGKGLEWIGYIYYRGSTFYNPSLKSRVTISIDTSKNQFSLRLSSVTAADTAVYYCAKDTRSSLDNYQYGMDVWGQGTTVTVSS VL: QTVVTQEPSLTVSPGGTVTLTCASSTGAVTSSYFPNWFQQKPGQAPRPLIYSTTIRHSWTPARFSGSLLGGKAALTLSGVQPEDEADYYCLLYSGGDPVAFGGGTKLTVL", "condition met"],
  ["TCN-537 (3194_D21) (antibody, V domains shown) VH: QVQLQQWGSGLLKPSETLSLTCAVYGGSFRDDYWTWIRQPPGKGLEWIGEINHSGRTNYNPSLKSRVTISVDTSLKQFSLKVISVTAADTAVYYCARGTSHVSRYFDWLPPTNWFDPWGQGTQVTVSS VL: DIVLTQSPGTLSLSPGERATLSCRASQSVSSSYLAWYQQKPGQAPRLVMYGAATRATGIPDRFSGSGSGPDFTLTISRLEPEDFAMYYCQQYGNSPITFGQGTRLEIK", "condition met"],
  ["TCN-547 (5092_F11) (antibody, V domains shown) VH: QVQLQESGPGLVKPSQTLSLTCTVSGDSISSVDHYWSWIRQHPVKGLEWIGFMYYSASTYYNPSLKSRVTISTDTSKNQFSLRLSSVTAADTAVYYCARGTCAGDCSLHYYYYGLDVWGQGRTVTVSS VL: DIQMTQSPSSLSASVGDRVTITCRASQSISSYLNWYQHKPGKAPKVLMYAVSILQSGVPSRFSGSGSGADFTLTISSLQPEDFATYYCQQSYSSPLTFGGGTKVEIK", "condition not met"]
]}

Trimeric HA Binding RLU >= 4000 RLU for TCN-534 (5249_B02) (antibody, V domains shown) VH: QVQLVQSGAEVKKPGSSVKVSCRESGGTFNGYTITWVRQAPGQGLEWMGGIIPMMGTVNYAQKLQGRVTITTDYFTKTAYMDLNNLRSEDTAMYYCVKIRYTGQQLLWGQGTLVTVSS VL: DIQMTQSPSTLSASIGDRVTITCRASQSIASWLAWYQQKPGKAPKLLIYEAVNLESGVPSRFSGSGSGTDFTLTISSLQPDDFATYFCQHYGTISQTFGGGTKVEIK ?
condition met
